system: UGT enzymes of human liver microsomes; test: Inhibition of 2ME2 glucuronidation (MG1, MG2) in human liver microsomes; assay type: biochemical; settings: liver 062101; 2ME2 50 μM; inhibitor 10 μM
Listed molecules paired with reported residual metabolism (% of control), 2ME2 MG1

1. O=C(O[C@@H]1Cc2c(O)cc(O)cc2O[C@H]1c1cc(O)c(O)c(O)c1)c1cc(O)c(O)c(O)c1 [Gallocatechin gallate]; 56 (1) %
2. O=C(c1ccc(OCCN2CCCCC2)cc1)c1c(-c2ccc(O)cc2)sc2cc(O)ccc12 [Raloxifene, raloxifene, reference compound]; 63 (1) %
3. O=C(OC[C@H]1O[C@@H](OC(=O)c2cc(O)c(O)c(OC(=O)c3cc(O)c(O)c(O)c3)c2)[C@H](OC(=O)c2cc(O)c(O)c(OC(=O)c3cc(O)c(O)c(O)c3)c2)[C@@H](OC(=O)c2cc(O)c(O)c(OC(=O)c3cc(O)c(O)c(O)c3)c2)[C@@H]1OC(=O)c1cc(O)c(O)c(OC(=O)c2cc(O)c(O)c(O)c2)c1)c1cc(O)c(O)c(OC(=O)c2cc(O)c(O)c(O)c2)c1; 24 (1) %

Continue with the next molecule.
Prompt line: Fill in the recorded residual metabolism (% of control), 2ME2 MG1 for this molecule, with UGT enzymes of human liver microsomes as test system: CC/C(=C(/CC)c1ccc(O)cc1)c1ccc(O)cc1 [Diethylstilbestrol, reference compound]
Response line: 72 (2) %

Origin of the recorded values: patent US20030215462A1
